- PROTOCOL TEXT: Half-lives of beta blockers in dog whole blood (procedure D)
- Type: in vitro ADME
- ASSAY CONDITIONS: 37° C., read-out: T1/2 dog blood
Counter-ions that a name gives are not always drawn.
READOUT NAME: half-life (min)
State the answer as a number, implicitly in min.

Take a look at these entries with their results.
{"COMPOUND": "CC(C)(CNC(=O)Cc1ccccc1)NCC(O)COC(=O)c1ccccc1F (stereo not shown) [Example VII, Hydrochloride]", "READOUT NAME": "half-life", "MEASURED VALUE": 6}
{"COMPOUND": "CCOC(=O)NCC(C)(C)NCC(O)COC(=O)c1ccccc1F (stereo not shown) [IX, Hydrochloride]", "READOUT NAME": "half-life", "MEASURED VALUE": 8}

// half-life lookup, compound = CC(C)(CNC(N)=O)NCC(O)COC(=O)c1ccccc1F (stereo not shown) , result: 15
